Entry source: PubChem BioAssay AID296

We begin with a simple list: items and their reported T/C.
# Test system: MX-1 breast xenograft, nude mice, tumor weight T/C
# ASSAY TEXT: NCI In Vivo Anticancer Drug Screen. Data for tumor model Human Mammary Carcinoma MX-1 Xenograft (intrarenal inoculation) in NU/NU Swiss (nude) mice
# MEASUREMENT SETUP: endpoint: mean tumor weight change; dose: 150.0 mg/kg/injection; schedule: Q04DX003 (sc); vehicle: Klucel (hydroxypropylcellulose) (HPC); higher = larger tumour
Results filed as inconclusive are left out. Where a SMILES comes first, the peptide text is derived from it. The star is where a group is joined. Trt = c1ccc(C(c2ccccc2)(c2ccccc2)*)cc1; Cbz = O=C(OCc1ccccc1)*; Bn = c1ccc(C*)cc1; βAla = NCCC(=O)O
MEASURED METRIC: T/C

molecule=COc1cc(C(=O)c2cocc2C(=O)c2ccc3c(c2)OCO3)cc(OC)c1OC result="74 % of control"
molecule=COc1cc(C(=O)c2cc3c(cc2C)OCO3)cc(OC)c1OC result="46 % of control"
molecule="COc1ccc2[nH]c3c(c2c1)CCNC3CC(C)CCC=C(C)C (configuration not stated)" result="119 % of control"
molecule=C=Cc1cnc([N+](=O)[O-])n1C result="72 % of control"
molecule=Cc1cc(NC(=S)SCc2ccc3c(c2)OCO3)ccc1Cl result="106 % of control"
molecule=C[C@]12CC[C@@H]3c4ccc(O)cc4CC[C@H]3[C@@H]1CC[C@@H]2O result="101 % of control"
molecule=CCN(CC)c1ccc2cc(-c3nc4ccccc4n3C)c(=O)oc2c1 result="104 % of control"
molecule=O=c1nc(-c2ccco2)sc(=O)[nH]1 result="90 % of control"
molecule="CC(CN1CC(=O)NC(=O)C1)N1CC(=O)NC(=O)C1 (configuration not stated)" result="92 % of control"
molecule=O=C1C=CC(=O)N1c1ccc(Cl)cc1 result="85 % of control"
molecule=Cc1ccc(S(=O)(=O)N/N=C/C(Br)=C(/Br)C(=O)O)cc1 result="80 % of control"
molecule=CN(C)c1ccc2c(SCC(=O)OCC(=O)[C@@]3(O)CC[C@H]4[C@@H]5CCC6=CC(=O)C=C[C@]6(C)[C@H]5C(=O)C[C@@]43C)c3ccc(N(C)C)cc3nc2c1 result="92 % of control"
molecule=Cc1cc(N2C(=O)CCSC2=S)ccc1Cl result="169 % of control"
molecule="COC(=O)C(CSC(c1ccccc1)(c1ccccc1)c1ccccc1)NC(=O)C(CSCc1ccccc1)NC(=O)CCNC(=O)OCc1ccccc1 (configuration not stated) ({Cbz-βAla}-Cys(Bn)-Cys(Trt)-OMe; configuration not given here)" result="49 % of control"
molecule="COC1CC2C=C(C)/C=C/C=C/C(=O)NC(c3ccccc3)C/C=C/CCC(O)CC(=O)C2=C1O (configuration not stated)" result="71 % of control"
molecule=CCc1ccc(C2=C(O)C(=O)C(c3ccccc3)=C(O)C2=O)cc1 result="100 % of control"
molecule=O=c1s[se]c2ccccc12 result="55 % of control"
molecule=CCN(C)N=Nc1ccc(C(N)=O)cc1 result="38 % of control"
molecule=Cc1ccc(NCCN(C)C)c2c(=O)c3cc(O)ccc3sc12 result="54 % of control"
molecule="CCNC(C)(C)C(SSS)c1ccco1 (configuration not stated)" result="102 % of control"
molecule=N/C(=N\OC(=O)Nc1ccc(CSc2ccc(Cl)cc2)o1)c1ccccn1 result="102 % of control"
molecule="O=C(O)c1cc(Cc2ccc(O)c(C(=O)O)c2)ccc1O (tested in a mixture with another compound)" result="55 % of control"
molecule=O=c1oc2c(O)c(O)cc3c(=O)oc4c(O)c(O)cc1c4c23 result="115 % of control"
molecule=CCCCCC[Se][Se]CCCCCC result="80 % of control"
molecule=CN(C)N=Nc1cccc(C(N)=O)c1 result="4 % of control"
molecule=C#C[C@]1(O)CC[C@H]2[C@@H]3CCc4cc(O)ccc4[C@H]3CC[C@@]21C result="150 % of control"
molecule=O=NN(CCCl)C(=O)Oc1ccc(OC(=O)N(CCCl)N=O)cc1 result="107 % of control"
